A compilation of published pIC50 results with Renin (Homo sapiens).
On this scale, pIC50 is minus log10 of a concentration expressed in M (mol/L).

Please review the entries below; each comes with its answer.
### Prompt Reported pIC50, compound CC(C)(C)OC(=O)NCCOC(=O)N[C@@H](Cc1ccccc1)C(=O)N[C@@H](Cc1c[nH]cn1)C(=O)N[C@@H](CC1CCCCC1)[C@@H](O)CC(=O)N[C@@H](CCCCN)C(=O)NCC1CCNCC1 : ____
### Response 7.41

### Prompt Also, O=C(N[C@@H](CC1CCCCC1)[C@@H](O)[C@@H](O)C1CC1)C(Cc1cccnc1)c1nnc2c(C3CC3)nc(-c3cccnc3)cn12 (single isomer, unassigned) please.
### Response 7.29

### Prompt Also, COc1ccc(C[C@H](NC(=O)OC(C)(C)C)C(=O)N[C@@H](Cc2c[nH]cn2)C(=O)N[C@@H](CC2CCCCC2)[C@@H](O)CC(=O)N[C@@H](CCCCN)C(=O)NCc2ccncc2)cc1 please.
### Response 7.38

### Prompt Also, CC[C@H](C)CNC(=O)C[C@H](O)[C@H](CC1CCCCC1)NC(=O)[C@H](Cc1c[nH]cn1)NC(=O)[C@H](Cc1ccccc1)NC(=O)N1CCOCC1 please.
### Response 8.30

### Prompt Also, O=C(N[C@@H](CC1CCCCC1)[C@@H](O)[C@@H](O)C1CC1)C(Cc1cscn1)c1nnc2c(CC3CC3)nc(-c3cccnc3)cn12 (single isomer, unassigned) please.
### Response 8.64

Now consider a different compound.
### Prompt Reported pIC50, compound O=C(N[C@@H](Cc1ccccc1)[C@@H](O)[C@@H](O)C1CC1)C(Cc1cccnc1)c1nnc2c(C3CC3)nc(-c3cccnc3)cn12 (stereo partly drawn) : ____
### Response 7.00

----------
A compilation of published pIC50 results with UniProt:P00797.
On this scale, pIC50 is minus log10 of a concentration expressed in M (mol/L).

Please review the entries below; each comes with its answer.
### Prompt Reported pIC50, compound CC(C)S(=O)(=O)N[C@@H](Cc1ccccc1)C(=O)N[C@@H](Cc1c[nH]cn1)C(=O)N[C@@H](CC1CCCCC1)[C@@H](O)CC(=O)N[C@@H](CCCCN)C(=O)NCC1CCNCC1 : ____
### Response 6.80

### Prompt Also, CC(C)Cc1nc(-c2cccnc2)nn2c(C(Cc3cccnc3)C(=O)N[C@@H](CC3CCCCC3)[C@@H](O)[C@@H](O)C3CC3)nnc12 (single isomer, unassigned) please.
### Response 6.82

### Prompt Also, NCCCC[C@H](NC(=O)C[C@H](O)[C@H](CC1CCCCC1)NC(=O)[C@H](Cc1c[nH]cn1)NC(=O)[C@H](Cc1ccccc1)NC(=O)N1CCOCC1)C(=O)NCc1ccncc1 please.
### Response 7.92

### Prompt Also, CC(C)CC(NC(=O)C(Cc1ccccc1)NC(=O)OC(C)(C)C)C(=O)NC(CC1CCCCC1)C(O)C(F)(F)C(O)C(C)C (centres unmarked) please.
### Response 7.66

Now consider a different compound.
### Prompt Reported pIC50, compound CC(C)C(O)C(F)(F)C(O)C(CC1CCCCC1)NC(=O)C(Cc1c[nH]cn1)NC(=O)C(CC(=O)N1CCOCC1)Cc1cccc2ccccc12 (centres unmarked) : ____
### Response 8.92
